Source: the supplement of paper PMC10567573

assay: protein stability index of a GFP-peptide fusion (GPS, HEK-293T) (PSI 1-6); higher = more stable; conditions: treatment: DMSO; c terminus: a fixed tail appended;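 further: 24-mer peptide tiles fused after GFP, lentivirally expressed, FACS-sorted into six equal bins by GFP/DsRed ratio, decoded by Illumina sequencing, PSI is the read-weighted mean bin number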
Kindly state protein stability index for each of the entries shown.

Fill in reported protein stability index for this entry: LLDQIREGAQLKKVEQNSRPVSCS [WASL] 4.85

Indicate its recorded protein stability index; the sequence in question is RDAKAAMAGRLMIRKLVAEKLNIP [AASDHPPT] 2.62

Tell me protein stability index reported for WLLLLTRGLVGVGEASYSTIAPTL [SPNS1] 2.67

Please give the documented protein stability index of GILRARRGEGIQAPSFSSYLYFLF [SOAT2] 2.29

Dear colleague, please send me the reported protein stability index for PGPGDDLCSDLEEAPEAELSQAPA [HES6] when you can. 5.44

Quickly give me recorded protein stability index for PRVEYIDRPRCCLRGKECCINRFQ [BTBD1] 2.42

Input DRECKLPPPSAPASEYCPGKLSWG [WDR88] , output reported protein stability index. 3.79

State, in one line, measured protein stability index of MHLKPYWKLQKKEHPPEVSRETQR [FBXO34] 3.58

Give me measured protein stability index, please, for this sequence: HDLIFWRDVKKTGFVFGTTLIMLL [RTN3] 2.81

Using the record for LLGGDLRYHLQQNVHFKEETVKLF [STK32A] , state its measured protein stability index. 2.36

Write down protein stability index measured for item KFHHSDCLSTWLLHFIATNYLIFS [RHOBTB3] 3.21

Please supply the value of reported protein stability index for the item AISLSTGRESYIPGICVARVYHGW [SLA] 2.92

Determine from records and report protein stability index for VKSIVVKGYNIWTGGPDACLRCWD [TLE6] 2.37

Quickly give me recorded protein stability index for TEPEDDRGPVVPKHSTFGQSLTQR [GNAS] 4.89

Return protein stability index (reported value) for this sequence: EYQPLQIETYGPHVPELEMLGRLG [MNAT1] 3.18

Give the value of protein stability index reported for the following: GIIRCPDGISIPELREACDYLCIS [BTBD10] 2.36

Hello, please tell me recorded protein stability index for this one: KELVEFAQDDDRLREERKKAKKNK [CLINT1] 5.49

Using known records, supply protein stability index for EPSHSVKVHTVPKPGKGADLSKPP [ATE1] 4.96

Assign protein stability index to the following record: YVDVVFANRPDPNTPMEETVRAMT [KCNAB2] 2.66

Quote protein stability index reported for YSNTDANILFYVVGLRNTLTRIRK [GLT8D2] please. 2.3

Return reported protein stability index. Input sequence: ALLKFKPGAFIAGVPVQPVLIRYP [LPCAT4] 2.54

Write down protein stability index measured for item MMHGLKPLSLVKRTDLKDLIIFDK [CEP70] 2.37

Query protein stability index for APEYRGRTELLKDAIGEGKVTLRI [MOG] 2.59

For the sequence STSQGCAQPQGAPCCSSSPEEPLN [FEM1A] , give its reported protein stability index. 5.37

Please list protein stability index recorded for the sequence VLSSTTLLPRQPLPLGIKVYEDET [PALM] 4.23

For the sequence CGHTFCRLCLPALSQMGAQSSGKI [TRIM15] , report protein stability index. 2.12

Please report protein stability index for the following sequence: SEEELTHIFGDLDSYIPLHEDLLT [NET1] 3.88

Hello, please tell me recorded protein stability index for this one: AHIRAERDILVEADGAWVVKMFYS [STK38L] 2.24

Write down protein stability index measured for item WTALHFAAQNGDESSTRLLLEKNA [RIPK4] 3.4

Provide protein stability index value for the following sequence: FLGLGAPNCLSMGSRCLKTFEVPE [ZBED1] 2.3

Return reported protein stability index. Input sequence: SGERWLERYEIDSLIGKGSFGQVV [DYRK1B] 2.97

For the sequence TPVDMWSVGCIFAEMFRRKPLFCG [CDK4] , give its reported protein stability index. 2.98

Dear colleague, please send me the reported protein stability index for VSSQRFKSSVYRRYNDFVVFQEML [SNX8] when you can. 2.1

---

Consider the following sequences; for each one, report its protein stability index.
experiment: protein stability index of a GFP-peptide fusion (GPS, HEK-293T) (PSI 1-6); higher = more stable; conditions: treatment: MLN4924 1 uM, 8 h; c terminus: a fixed tail appended
Just the number, please.

Identify the reported protein stability index for the following entry. SLGQDLRRLRQELLKTEALKRQAQ [DAPK3] 2.96

State its protein stability index for this sequence: MTGLALKHMFERSFTQGEGARPLS [MATN2] 2.93

State, in one line, measured protein stability index of FPPDLVFRADQRSGPRQLLTLYNP [MOSPD3] 2.93

For the sequence TLGYMPTEMELLEVSQHIKMRMGG [CABP4] , give its reported protein stability index. 2.94

---

test: protein stability index of a GFP-peptide fusion (GPS, HEK-293T) (PSI 1-6); higher = more stable; conditions: treatment: DMSO; c terminus: a fixed tail appended
PARAMETER MEASURED: protein stability index
Form rule: numeric answer, no unit written next to it.

Tell me measured protein stability index for LLQTEPQNNQAKELERLIDKAMKK [FIS1] please. 3.99

Recall and state the measured protein stability index for ALAKKFIDKNTQLTLQVYREQADS [TRIM14] . 2.88

Please look at this sequence and report its protein stability index: EKIQQDADSVITVGRGEVVTVRVP [ACBD3] 4.55

Determine from records and report protein stability index for IKSVKESLQESVEDSLATVKVVLI [IQUB] 2.27

State, in one line, measured protein stability index of LCEYFSQHLGEYENVLAALEGLNL [NECAB1] 2.61

Provide one value: measured protein stability index of IGNPPVGPIGGMMPPQPGIPQQQG [ZNF207] 4.62

Fill in protein stability index for record EEFNVLEMEVMRRQLYAVNRRLRA [FATE1] 2.92

Supply protein stability index value. Item: ALQRLDLRNNQISHKGAEELALAL [LRRC45] 3.22

Quote protein stability index reported for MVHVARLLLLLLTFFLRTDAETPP [PTPRD] please. 2.91

Read the entry VAKCLIGVNYPKPMVNHAEASRLN [CRY1] and write its reported protein stability index. 2.5

Fill in reported protein stability index for this entry: NSLRGVILDIHFLSQADFLVCTFS [FUT8] 2.72

Indicate the recorded protein stability index value for this sequence: NFSKKIQQIHVVSQFKILVSLLEN [VPS39] 2.64

Input LVSVYPDKYCPLLIKEGGMPLLRD [ZER1] , output reported protein stability index. 2.38

Item DFCEPSFVTGNCLEISPDCSQYDR [PCMTD2] : provide protein stability index 4.38

Name the recorded protein stability index of the item ADRAQKMDGESEEEQESVDTGEEE [EHMT1] in your answer. 5.78

State its protein stability index for this sequence: DLQITDQVALLRLTWSELFVLNAA [NR2F2] 2.92

Provide only the value of recorded protein stability index for SQSHCYRTCFSPASDGSDFTFLRP [PCDHGC5] 2.15

Let me know recorded protein stability index for LKTSEVTQHLPRECLPENLGGYVK [PTPN9] , thanks. 3.97

Using the record for NTLQTYIRCRHPPPGSHLLYAKMI [VDR] , state its measured protein stability index. 2.21

Find the measured protein stability index of LKRRFSRLENRYEALAKQVASEMR [DAPK3] and report it. 2.47

Give recorded protein stability index. ESNAAQYSPEALASIQNHVRKREA [EFHC1] 4.87

Identify the reported protein stability index for the following entry. VVSTSGEQMKVYKCEHCRVLFLDH [IKZF1] 2.69

State its protein stability index: EARGLRLSDLEDLEEEEEEEEEAE [IRX6] 5.55

Fill in protein stability index for record ERWLQKQGKYSGVGLLDHMVSIYL [RNF180] 2.3

Given LMDEGASSEKKRQSSADGSQPPKK [RBBP5] , respond with its protein stability index. 5.56

Hello, please tell me recorded protein stability index for this one: LSQLSSHDPLWRRHCKKYWLISEE [FBXO3] 2.54

Consider the sequence PAYGMSPSLSTITSTSSSITSSIP [DVL3] and give its recorded protein stability index. 3.82

Read off the recorded protein stability index for DSQQPGKRRKDSEEEAASPEGKRV [FANCE] 5.66

Provide one value: measured protein stability index of ETQNAFLNERKQASAIKKEELVAR [CHGB] 3.57

Supply protein stability index value. Item: PYMSIQPAEDPDDYDDGFSMKHTA [SMARCE1] 4.88

Identify measured protein stability index corresponding to SKDWVFLNYTYKRFEGLTQRGSIP [STK38L] 2.54

Quote protein stability index reported for SAGGHGGLLNDTSAPHLENSGHTI [KCNA4] please. 4.21

Query protein stability index for LSWLVWLLLLLLASLLPSARLASP [ADAMTS4] 2.99

Determine its reported protein stability index: GGRRRPPASSRNRSPSGSLRSARG [RBMY1A1] 5.16

Determine from records and report protein stability index for SLQNSLECAMETTEEQTRQERQGP [NECAB1] 5.09

Quick one: give measured protein stability index for RDAAIKKLATEAGVEVIVRISHTL [CRY1] 2.83

Give protein stability index for the following sequence: TDGGGWLVFQRRMDGQTDFWRDWE [TNXB] 2.33

Please give measured protein stability index of the following entry: FTTFFIDCMAALGLAYDRKKVSKA [SCD] 2.07

// Input: EICLWGRHIFMGYLESETETTEAI [ACSBG2] . Output its protein stability index only. 2.55

Please report the measured protein stability index for PDTQLLKFQLNKYTGEIKISENLD [PCDHGA10] 3.43

Note down protein stability index recorded for DEELHLLIISCRKLFYFKIWAFLD [FBXO39] 2.75

Output measured protein stability index for this item: RALNSVPVIIAAVGTRQNEELPCT [RHOBTB3] 3.39

Report protein stability index for WNVLMWTSLFLGNGVLLCFYSQEW [SOAT1] 2.99

Return value of protein stability index for input IPKLTPGDNPYMYPEQSKGFHKAG [SPATS1] , no commentary. 3.97

Using the record for LFGEKLSGTDAEETILNAFKMLDP [MYL5] , state its measured protein stability index. 3.56

Give reported protein stability index value for MQALEIELQSQLSMKASLEGNLAE [KRT17] 3.59
